- System: human neutrophilic leukocyctes
- assay-procedure: Activity for inhibiting the generation of O2- in human neutrophilic leukocytes (FMLP-stimulated, ferricytochrome C method)
- Type: cell-based
- assay-conditions: Leukocyte, O₂⁻ generation stimulated with 3×10⁻⁷ M FMLP at 37°C, cytochalasin B 5 µg/ml, pre-incubated with test compound 20 minutes, 4 minutes reduction, absorbance 550 nm, read-out: IC₅₀
Binarize IC50 at 300 nM; below is Met, at or above is Not met.

1) CCOc1ccc(-c2nc(-c3ccc(O)c(-c4nnn[nH]4)c3)cs2)cc1OCC : Met
2) COc1ccc(-c2nc(-c3ccc(O)c(C(=O)NO)c3)cs2)cc1OC : Not met
3) COc1ccc(-c2nc(-c3cccc(NC(=N)SC)c3)cs2)cc1OC [Test compound 16, hydroiodide] : Not met
4) CCOc1ccc(-c2nc(-c3ccc(C(N)=S)cc3)cs2)cc1OCC : Met
5) CCOc1ccc(-c2nc(-c3cc(N4CCN(C)CC4)ccn3)cs2)cc1OCC : Not met
6) CCOc1ccc(-c2nc(-c3cccc(C(=N)SC)n3)cs2)cc1OCC : Not met
7) CCOc1ccc(-c2nc(-c3cccc(C(N)=S)n3)cs2)cc1OCC : Met
8) CCOc1ccc(-c2nc(-c3ccc(C(=N)SC)cc3)cs2)cc1OCC : Met
